Data provenance is patent US20020169101A1.

# assayed_target: human NMB receptor (BB1) (Homo sapiens)
# Construct: expressed in transfected cells; membranes prepared from the cells
# Sequence (P28336 whole entry): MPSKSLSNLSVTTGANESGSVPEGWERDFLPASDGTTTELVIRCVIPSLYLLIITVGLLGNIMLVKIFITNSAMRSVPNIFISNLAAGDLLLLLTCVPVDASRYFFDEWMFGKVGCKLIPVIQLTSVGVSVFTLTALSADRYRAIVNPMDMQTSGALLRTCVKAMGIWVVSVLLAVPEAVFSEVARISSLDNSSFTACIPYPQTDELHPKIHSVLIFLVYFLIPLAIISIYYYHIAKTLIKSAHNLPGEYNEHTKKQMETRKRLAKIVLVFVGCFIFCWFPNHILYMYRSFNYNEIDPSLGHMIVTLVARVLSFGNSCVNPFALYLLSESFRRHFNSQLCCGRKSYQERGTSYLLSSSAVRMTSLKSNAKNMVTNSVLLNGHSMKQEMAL
# experiment_description: BB1 binding assay ([125I][Tyr4]bombesin displacement, CHO-K1 membranes)
measured_endpoint: IC50 (nM)

P: C[C@@](Cc1c[nH]c2ccccc12)(NS(=O)(=O)c1ccc(OC(F)(F)F)cc1)C(=O)NCC1(c2ccccn2)CCCCC1
Q: C[C@@](Cc1c[nH]c2ccccc12)(NS(=O)(=O)c1ccc(-c2ccccn2)s1)C(=O)NCC1(c2ccccn2)CCCCC1
Enquiry: // pick larger IC50 from pair: P vs Q // output: label of the selected item
Return: P
(P: 635 nM, Q: 344 nM)
